Where these numbers come from: patent US11773062B2

# test.system: CYP2B6 (Homo sapiens, UniProt P20813)
# Sequence (P20813 1-491): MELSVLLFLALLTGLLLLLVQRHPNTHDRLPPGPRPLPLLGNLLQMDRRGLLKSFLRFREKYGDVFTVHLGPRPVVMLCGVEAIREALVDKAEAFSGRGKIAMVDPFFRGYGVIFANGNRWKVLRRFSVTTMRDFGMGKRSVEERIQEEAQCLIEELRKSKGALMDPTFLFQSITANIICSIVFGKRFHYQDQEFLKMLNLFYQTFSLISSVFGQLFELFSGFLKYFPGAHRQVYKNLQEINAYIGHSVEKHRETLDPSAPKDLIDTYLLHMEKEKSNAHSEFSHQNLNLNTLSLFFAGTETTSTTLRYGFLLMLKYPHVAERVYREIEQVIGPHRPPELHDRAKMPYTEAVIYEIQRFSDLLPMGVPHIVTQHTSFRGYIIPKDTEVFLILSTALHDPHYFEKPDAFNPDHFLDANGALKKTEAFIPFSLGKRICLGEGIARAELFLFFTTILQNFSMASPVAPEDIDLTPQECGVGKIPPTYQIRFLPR
# test.name: in vitro
# assay.context: human, recombinant enzyme, pH 7.4
quantity.measured: half-life

Problem: Requested read-out: half-life. Entry: CN(C)CCc1c[nH]c2ccccc12 [SPL026, N,N-dimethyltryptamine, reference compound]
Result: > 4 h

###

# test.system: CYP3A4 (Homo sapiens)
# Sequence (P08684 whole entry): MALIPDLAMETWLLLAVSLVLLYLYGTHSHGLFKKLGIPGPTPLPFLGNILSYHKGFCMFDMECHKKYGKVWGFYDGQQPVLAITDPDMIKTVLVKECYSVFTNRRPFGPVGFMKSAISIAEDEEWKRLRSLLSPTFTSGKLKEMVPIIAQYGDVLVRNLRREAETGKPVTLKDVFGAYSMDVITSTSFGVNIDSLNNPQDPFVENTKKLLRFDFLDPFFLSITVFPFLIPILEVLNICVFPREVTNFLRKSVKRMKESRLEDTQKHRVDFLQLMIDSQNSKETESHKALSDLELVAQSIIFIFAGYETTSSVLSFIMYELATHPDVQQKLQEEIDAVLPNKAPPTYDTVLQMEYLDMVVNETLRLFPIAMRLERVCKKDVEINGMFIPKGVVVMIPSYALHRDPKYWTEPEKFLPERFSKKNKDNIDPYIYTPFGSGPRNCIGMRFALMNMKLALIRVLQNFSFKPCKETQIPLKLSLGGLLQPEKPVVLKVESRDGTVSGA
# test.name: in vitro
# assay.context: human, recombinant enzyme, pH 7.4
For each of the compounds below, state its half-life.

Problem: Given the compound Cc1ncc2n1-c1ccc(Cl)cc1C(c1ccccc1F)=NC2 [Midazolam, reference compound] , what is its reported half-life?
Result: 5 min

Problem: // repeat for CN(C)CCc1c[nH]c2ccccc12 [SPL026, N,N-dimethyltryptamine, reference compound] and report
Result: > 240 min

Problem: Now consider COc1ccccc1OCCNCC(O)COc1cccc2[nH]c3ccccc3c12 (stereo not drawn) [Carvedilol, reference compound] .
Result: 49 min

###

# test.name: Human liver mitochondrial fraction intrinsic clearance of SPL026, SPL028i, SPL028iii, SPL028viii
# Type: in vitro ADME
# assay.context: 0.5 mg/mL human liver mitochondrial fraction (Table 10)
I'd be grateful if you could share measured half-life for these entries.
Report the figure in min without appending any unit label.

Problem: I'd like to know its half-life. The compound in question is NCc1ccccc1 [Benzylamine, reference compound]
Result: 23.2

Problem: Also CN(C)CCc1c[nH]c2ccccc12 [SPL026, N,N-dimethyltryptamine, reference compound] ?
Result: 8.6

Problem: Queued: [2H]C([2H])(Cc1c[nH]c2ccccc12)N(C)C
Result: 31.1

Problem: Then this compound: NCCc1c[nH]c2ccc(O)cc12 [Serotonin, reference compound]
Result: 9.2

###

# test.system: CYP3A5 (Homo sapiens, UniProt P20815)
# Sequence (P20815 whole entry): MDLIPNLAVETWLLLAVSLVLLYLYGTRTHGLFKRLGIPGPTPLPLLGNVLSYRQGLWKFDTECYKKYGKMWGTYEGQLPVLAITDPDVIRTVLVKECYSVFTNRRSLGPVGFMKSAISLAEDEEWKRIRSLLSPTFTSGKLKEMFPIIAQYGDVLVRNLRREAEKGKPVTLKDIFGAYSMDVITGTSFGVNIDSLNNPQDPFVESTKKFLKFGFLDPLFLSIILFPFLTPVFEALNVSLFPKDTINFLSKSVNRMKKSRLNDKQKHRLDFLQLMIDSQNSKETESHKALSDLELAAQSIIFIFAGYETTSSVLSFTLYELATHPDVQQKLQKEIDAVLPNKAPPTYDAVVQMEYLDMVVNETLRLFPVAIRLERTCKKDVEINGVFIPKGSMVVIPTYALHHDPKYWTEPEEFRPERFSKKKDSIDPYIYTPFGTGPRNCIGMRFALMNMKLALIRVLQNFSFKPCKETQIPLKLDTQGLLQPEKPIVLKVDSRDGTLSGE
# test.name: in vitro
# assay.context: human, recombinant enzyme, pH 7.4
quantity.measured: half-life (min)
Enter your answer as a number in min; do not include the unit.

Problem: Bench note: what half-life did Cc1ncc2n1-c1ccc(Cl)cc1C(c1ccccc1F)=NC2 [Midazolam, reference compound] show?
Result: 11

###

# System: human (mixed gender) hepatocytes
# test.name: In vitro intrinsic clearance in human hepatocytes with and without MAO-A/B inhibitor combination (first experiment)
# assay.context: human hepatocytes, without MAO-A/B inhibitor combination (Table 5)
quantity.measured: Intrinsic clearance, without inhibitors (μL/min/million cells)
Kindly provide the numeric value in μL/min/million cells only, without the unit symbol.

Problem: Form field: reported Intrinsic clearance, without inhibitors of [2H]C([2H])(Cc1c[nH]c2ccccc12)N(C)C [SPL028iv]
Result: 11.14

Problem: Quick one: [2H]C([2H])(Cc1c[nH]c2ccccc12)N(C)C [SPL028iii]
Result: 9.36

Problem: Now consider CN(C)CCc1c[nH]c2ccccc12 [SPL026, N,N-dimethyltryptamine, reference compound] .
Result: 13.77

Problem: Do the same for [2H]C([2H])(Cc1c[nH]c2ccccc12)N(C)C [SPL028v] please
Result: 10.99

Problem: Would you mind doing [2H]C([2H])(Cc1c[nH]c2ccccc12)N(C)C [SPL028i] as well?
Result: 7.15

Problem: Subsequent entry: NCc1ccccc1 [Benzylamine, reference compound]
Result: 16.7

Problem: Follow-up entry: [2H]C([2H])(Cc1c[nH]c2ccccc12)N(C)C [SPL028ii]
Result: 10.46

Problem: Another molecule to check: [2H]C([2H])(Cc1c[nH]c2ccccc12)N(C)C [SPL028vi]
Result: 13.64

Problem: Could you do the same for NCCc1c[nH]c2ccc(O)cc12 [Serotonin, reference compound] , please?
Result: 38.6
